Values were extracted from ChEMBL document CHEMBL2069182.

experiment: Oral bioavailability in rat at 2 mg/kg; assay type: ADME, organism-based; details: in vivo
Attribute: bioavailability
Don't forget the unit after the value.

What value of measured bioavailability is listed for Cc1cc(-c2c[nH]c(=O)c(NC(=O)[C@H](Cc3ccccc3)NCc3cscn3)c2)ccn1 ? 19%

Further cases:
What value of measured bioavailability is listed for O=C(O)c1cc(NC(=O)[C@H](Cc2ccccc2)NCc2cscn2)cc(-c2ccncc2)c1 ? 0%

* * *

biological target: UniProt P08684; assay: Inhibition of CYP3A4 at 3 uM; format: ADME
Sequence (P08684 whole entry): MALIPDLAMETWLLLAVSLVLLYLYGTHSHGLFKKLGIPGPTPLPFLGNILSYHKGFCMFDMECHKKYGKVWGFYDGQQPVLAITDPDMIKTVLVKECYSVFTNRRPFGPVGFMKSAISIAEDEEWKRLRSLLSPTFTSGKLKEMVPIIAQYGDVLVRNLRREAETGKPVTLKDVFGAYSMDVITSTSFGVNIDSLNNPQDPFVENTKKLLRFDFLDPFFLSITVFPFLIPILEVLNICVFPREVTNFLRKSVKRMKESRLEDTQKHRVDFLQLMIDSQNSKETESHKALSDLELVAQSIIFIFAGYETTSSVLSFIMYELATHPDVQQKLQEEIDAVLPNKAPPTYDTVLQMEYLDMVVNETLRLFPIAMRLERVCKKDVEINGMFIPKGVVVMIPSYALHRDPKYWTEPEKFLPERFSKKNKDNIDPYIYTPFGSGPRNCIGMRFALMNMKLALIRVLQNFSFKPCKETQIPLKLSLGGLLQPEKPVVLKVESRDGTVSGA
ENDPOINT_LABEL: inhibition at 3 µM (%)
Note: unit % is implicit; provide only the numeric part.

What value of measured inhibition at 3 µM is listed for O=C(Nc1ccccc1)[C@H](Cc1ccccc1)NCc1cscn1 ? 24

Further cases:
What value of measured inhibition at 3 µM is listed for Nc1cc(-c2cccc(NC(=O)[C@H](Cc3ccccc3)NCc3cscn3)c2)ccn1 ? 38

Would you kindly repeat that for O=C(Nc1cccc(-c2cc[nH]n2)c1)[C@H](Cc1ccccc1)NCc1cscn1 ? 59

Would you kindly repeat that for O=C(Nc1cccc(-c2ccncc2)c1)[C@H](Cc1ccccc1)NCc1cscn1 ? 97

Would you kindly repeat that for Cc1cc(-c2c[nH]c(=O)c(NC(=O)[C@H](Cc3ccccc3)NCc3cscn3)c2)ccn1 ? 22

Would you kindly repeat that for Cn1cc(-c2c[nH]c(=O)c(NC(=O)[C@H](Cc3ccccc3)NCc3cscn3)c2)cn1 ? 24

Would you kindly repeat that for O=C(Nc1cccc(-c2cn[nH]c2)c1)[C@H](Cc1ccccc1)NCc1cscn1 ? 82

Would you kindly repeat that for Cn1cc(-c2cccc(NC(=O)[C@H](Cc3ccccc3)NCc3cscn3)c2)cn1 ? 36

Would you kindly repeat that for Cn1ccc(-c2cccc(NC(=O)[C@H](Cc3ccccc3)NCc3cscn3)c2)n1 ? 30

Would you kindly repeat that for O=C(Nc1cc(-c2ccn[nH]2)c[nH]c1=O)[C@H](Cc1ccccc1)NCc1cscn1 ? 18
